molecular target: T1, Fluorescein-isothiocyanate-β-Ala-labeled Aβ42 (UniProt P05067 672-713, fluorescein-isothiocyanate-β-Ala on the N-terminus); assay: other fluorescence titration; N-terminal fluorescently-labeled peptide (5 nM) titrated with unlabeled peptide; 10 mM sodium phosphate buffer, pH 7.4 (1% HFIP); measured within 2–5 min after preparation; apparent KDs from 1/1 binding models; conditions: both partners purified
T1 construct: amyloid-β peptide Aβ42, the 42-residue cut product of the amyloid precursor protein; also called FITC-Aβ42; N-terminal FITC-labeled Aβ42; source: bought: Bachem
T1 sequence (P05067 672-713): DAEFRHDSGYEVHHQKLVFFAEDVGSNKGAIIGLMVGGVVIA
Square brackets hold non-standard residues; d marks the D form. Ends that are not written are not given here. NMeF = CN[C@@H](Cc1ccccc1)C(=O)O; NMeL = CN[C@@H](CC(C)C)C(=O)O; NMeV = CN[C@H](C(=O)O)C(C)C; Nle = CCCC[C@H](N)C(=O)O
measured.parameter: Kd (nM)
Reply numerically in nM, unit not repeated.

Ask | Can you share its Kd? I mean this binder: QK[NMeL]V[NMeF]FAED[Nle][Nle][Nle]NKGAIIGL[Nle]VGGVV [Nle3-LF]
Reply | 11.1

Ask | What Kd value was documented for this binder, QKL[NMeV]F[NMeF]AEDLLLNKGAIIGL[Nle]VGGVV [L3-VF] ?
Reply | 38

Ask | Need Kd, item QK[NMeL]V[NMeF]FAEDFFFNKGAIIGL[Nle]VGGVV [F3-LF]
Reply | 431

Ask | For QK[NMeL]V[NMeF]FAEDLLLNKGAIIGL[Nle]VGGVV [L3-LF] , what is its reported Kd?
Reply | 2.6

Ask | Please look up its Kd: QKL[NMeV]F[NMeF]AEDFFFNKGAIIGL[Nle]VGGVV [F3-VF]
Reply | 161

Ask | Request the reported Kd associated with QKL[NMeV]F[NMeF]AED[Nle][Nle][Nle]NKGAIIGL[Nle]VGGVV [Nle3-VF]
Reply | 14.5
